Task for the reader: assign each of the following substances its reported Halftime.
Assay: Fluorescence recovery after photobleaching (FRAP)
Conditions: one-phase association fit
Supply the numeric figure in s, leaving out any unit text.

I have this substance here, Q6: Q hydrogel variant from trimodal Monte Carlo search, SEQ ID NO: 15 (MRGSHHHHHHGSIEGRVKEITFIKKQIEQIAEEMKEINKAIHDIRHALENISKK) [Protein Q6] , and I need its recorded Halftime.
5.1

I have this substance here, Q7: Q hydrogel variant from trimodal Monte Carlo search, SEQ ID NO: 16 (MRGSHHHHHHGSIEGRVKEMTFIKKTIEQQAEEMKEINKAIHDIRHALENISKK) [Protein Q7] , and I need its recorded Halftime.
9.7

I have this substance here, Q: rationally designed pentameric coiled-coil derived from C, SEQ ID NO: 23 (MRGSHHHHHHGSIEGRVKEITFLKNTAPQMLRELQETNAALQDVRELLRQQSKL) [reference compound] , and I need its recorded Halftime.
9.9

I have this substance here, Q3: Q variant with V44I pore mutation, SEQ ID NO: 12 (MRGSHHHHHHGSIEGRVKEILFLKNTAYQMLLELKETNEALYDIRHLLQQQSKL) [Protein Q3] , and I need its recorded Halftime.
34.8

I have this substance here, Q4: Q hydrogel variant from Rosetta Monte Carlo search, SEQ ID NO: 13 (MRGSHHHHHHGSIEGRVKEITFIKKTIEQIAEEMKEINKAIHDIRHALENISKK) [Protein Q4] , and I need its recorded Halftime.
5.7

I have this substance here, Q5: Q hydrogel variant from Rosetta Monte Carlo search, SEQ ID NO: 14 (MRGSHHHHHHGSIEGRVKEITFIKKTIEQIAEEMKEINKAIHDIRHALENISKK) [Protein Q5] , and I need its recorded Halftime.
12.3

I have this substance here, Q2: coiled-coil protein redesigned from Q for reduced lateral assembly, SEQ ID NO: 11 (MRGSHHHHHHGSIEGRVKELLFLKKTAEQMLEELKETNKALHDVRHLLENQSKL) [Protein Q2] , and I need its recorded Halftime.
11.1

----------
Test: CD temperature scans (melting temperature)
Assay type: physicochemical
Settings: native, 50 mM NaH2PO4 pH 4.0
Measured Metric: melting temperature

I have this substance here, C2: C variant with redistributed electrostatic patches, SEQ ID NO: 22 (MRGSHHHHHHGSIEGRMQLAKHMLKELQKTNALQSVRTLLQQQVEEITQLKETVENSDSS) [Protein C2] , and I need its recorded melting temperature.
49.4±1.1 °C

I have this substance here, Q3: Q variant with V44I pore mutation, SEQ ID NO: 12 (MRGSHHHHHHGSIEGRVKEILFLKNTAYQMLLELKETNEALYDIRHLLQQQSKL) [Protein Q3] , and I need its recorded melting temperature.
61.0±4.9 °C

I have this substance here, Q2: coiled-coil protein redesigned from Q for reduced lateral assembly, SEQ ID NO: 11 (MRGSHHHHHHGSIEGRVKELLFLKKTAEQMLEELKETNKALHDVRHLLENQSKL) [Protein Q2] , and I need its recorded melting temperature.
43.4±4.0 °C

I have this substance here, Q: rationally designed pentameric coiled-coil derived from C, SEQ ID NO: 23 (MRGSHHHHHHGSIEGRVKEITFLKNTAPQMLRELQETNAALQDVRELLRQQSKL) [reference compound] , and I need its recorded melting temperature.
37.0±7.8 °C

----------
Test: TEM of hydrogel nanofibers
Assay type: physicochemical
Conditions: gel after incubation at 4 °C
Experimental: Transmission Electron Microscopy. Transmission electron microscopy (TEM) images were taken with a FEI Talos L120C transmission electron microscope. The supramolecular assembly of Q2 and Q were monitored over the course of 60 and 144 hours, respectively (in correspondence with tube inversion and microrheology). TEM images were taken of the gel at times consistent with when microrheological measurements for Q2 for consistent fibril sizing. […]
Measured Metric: hydrogel fibril diameter (TEM) (nm)
Supply the numeric figure in nm, leaving out any unit text.

I have this substance here, Q6: Q hydrogel variant from trimodal Monte Carlo search, SEQ ID NO: 15 (MRGSHHHHHHGSIEGRVKEITFIKKQIEQIAEEMKEINKAIHDIRHALENISKK) [Protein Q6] , and I need its recorded hydrogel fibril diameter (TEM).
39.9

I have this substance here, Q3: Q variant with V44I pore mutation, SEQ ID NO: 12 (MRGSHHHHHHGSIEGRVKEILFLKNTAYQMLLELKETNEALYDIRHLLQQQSKL) [Protein Q3] , and I need its recorded hydrogel fibril diameter (TEM).
32.8

I have this substance here, Q4: Q hydrogel variant from Rosetta Monte Carlo search, SEQ ID NO: 13 (MRGSHHHHHHGSIEGRVKEITFIKKTIEQIAEEMKEINKAIHDIRHALENISKK) [Protein Q4] , and I need its recorded hydrogel fibril diameter (TEM).
27.2

I have this substance here, Q2: coiled-coil protein redesigned from Q for reduced lateral assembly, SEQ ID NO: 11 (MRGSHHHHHHGSIEGRVKELLFLKKTAEQMLEELKETNKALHDVRHLLENQSKL) [Protein Q2] , and I need its recorded hydrogel fibril diameter (TEM).
28.9

I have this substance here, Q: rationally designed pentameric coiled-coil derived from C, SEQ ID NO: 23 (MRGSHHHHHHGSIEGRVKEITFLKNTAPQMLRELQETNAALQDVRELLRQQSKL) [reference compound] , and I need its recorded hydrogel fibril diameter (TEM).
40.5

I have this substance here, Q5: Q hydrogel variant from Rosetta Monte Carlo search, SEQ ID NO: 14 (MRGSHHHHHHGSIEGRVKEITFIKKTIEQIAEEMKEINKAIHDIRHALENISKK) [Protein Q5] , and I need its recorded hydrogel fibril diameter (TEM).
22.2

I have this substance here, Q7: Q hydrogel variant from trimodal Monte Carlo search, SEQ ID NO: 16 (MRGSHHHHHHGSIEGRVKEMTFIKKTIEQQAEEMKEINKAIHDIRHALENISKK) [Protein Q7] , and I need its recorded hydrogel fibril diameter (TEM).
36.3

----------
Task for the reader: assign each of the following substances its reported aggregated strands.
Assay: ATR-FTIR peak deconvolution of secondary structure
Format: physicochemical
Details: w/CCM
Supply the numeric figure in %, leaving out any unit text.

I have this substance here, Q2: coiled-coil protein redesigned from Q for reduced lateral assembly, SEQ ID NO: 11 (MRGSHHHHHHGSIEGRVKELLFLKKTAEQMLEELKETNKALHDVRHLLENQSKL) [Protein Q2] , and I need its recorded aggregated strands.
10.6

I have this substance here, C2: C variant with redistributed electrostatic patches, SEQ ID NO: 22 (MRGSHHHHHHGSIEGRMQLAKHMLKELQKTNALQSVRTLLQQQVEEITQLKETVENSDSS) [Protein C2] , and I need its recorded aggregated strands.
9.0

I have this substance here, Q3: Q variant with V44I pore mutation, SEQ ID NO: 12 (MRGSHHHHHHGSIEGRVKEILFLKNTAYQMLLELKETNEALYDIRHLLQQQSKL) [Protein Q3] , and I need its recorded aggregated strands.
17.8

I have this substance here, Q: rationally designed pentameric coiled-coil derived from C, SEQ ID NO: 23 (MRGSHHHHHHGSIEGRVKEITFLKNTAPQMLRELQETNAALQDVRELLRQQSKL) [reference compound] , and I need its recorded aggregated strands.
15.4

----------
Task for the reader: assign each of the following substances its reported antiparallel β-sheet/aggregated strands.
Assay: ATR-FTIR peak deconvolution of secondary structure
Assay type: physicochemical
Details: w/CCM
Supply the numeric figure in %, leaving out any unit text.

I have this substance here, Q3: Q variant with V44I pore mutation, SEQ ID NO: 12 (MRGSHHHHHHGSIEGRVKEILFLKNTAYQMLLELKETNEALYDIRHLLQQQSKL) [Protein Q3] , and I need its recorded antiparallel β-sheet/aggregated strands.
7.6

I have this substance here, Q: rationally designed pentameric coiled-coil derived from C, SEQ ID NO: 23 (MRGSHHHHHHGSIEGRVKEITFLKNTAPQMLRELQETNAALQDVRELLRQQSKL) [reference compound] , and I need its recorded antiparallel β-sheet/aggregated strands.
7.8

I have this substance here, Q2: coiled-coil protein redesigned from Q for reduced lateral assembly, SEQ ID NO: 11 (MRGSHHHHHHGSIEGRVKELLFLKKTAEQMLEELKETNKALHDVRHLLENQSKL) [Protein Q2] , and I need its recorded antiparallel β-sheet/aggregated strands.
0.0

I have this substance here, C2: C variant with redistributed electrostatic patches, SEQ ID NO: 22 (MRGSHHHHHHGSIEGRMQLAKHMLKELQKTNALQSVRTLLQQQVEEITQLKETVENSDSS) [Protein C2] , and I need its recorded antiparallel β-sheet/aggregated strands.
4.8

----------
Assay: ATR-FTIR peak deconvolution of secondary structure
Type: physicochemical
Settings: native
Task for the reader: assign each of the following substances its reported aggregated strands.
Supply the numeric figure in %, leaving out any unit text.

I have this substance here, Q2: coiled-coil protein redesigned from Q for reduced lateral assembly, SEQ ID NO: 11 (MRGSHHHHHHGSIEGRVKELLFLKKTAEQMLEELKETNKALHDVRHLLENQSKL) [Protein Q2] , and I need its recorded aggregated strands.
3.9

I have this substance here, C2: C variant with redistributed electrostatic patches, SEQ ID NO: 22 (MRGSHHHHHHGSIEGRMQLAKHMLKELQKTNALQSVRTLLQQQVEEITQLKETVENSDSS) [Protein C2] , and I need its recorded aggregated strands.
5.3

I have this substance here, Q3: Q variant with V44I pore mutation, SEQ ID NO: 12 (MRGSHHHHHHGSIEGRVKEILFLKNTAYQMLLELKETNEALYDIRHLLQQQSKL) [Protein Q3] , and I need its recorded aggregated strands.
5.2

I have this substance here, Q: rationally designed pentameric coiled-coil derived from C, SEQ ID NO: 23 (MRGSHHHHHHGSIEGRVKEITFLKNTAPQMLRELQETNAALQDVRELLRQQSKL) [reference compound] , and I need its recorded aggregated strands.
6.0
